Every entry's value here was drawn from patent US12421212B2.

molecules and their reported IC50
Target: IL-17A/A (Homo sapiens)
Construct: purchased Genscript Z03228
Sequence (Q16552 24-155): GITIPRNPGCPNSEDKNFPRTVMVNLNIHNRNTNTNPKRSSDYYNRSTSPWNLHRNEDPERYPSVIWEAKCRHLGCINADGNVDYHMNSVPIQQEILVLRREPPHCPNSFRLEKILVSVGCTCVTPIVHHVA
Assay: IL-17A/A HEK-Blue Cell Assay
Type: cell-based
Details: HEK-Blue IL-17A reporter cell line, SEAP readout at A630, 20 hours incubation with IL-17A/A; top concentration 10 uM, 1 uM or 0.3 uM; read-out: IL-17A/A inhibition (pIC50) (converted)

Examples with answers:
Molecule	Assayed Target	IC50
CCC(=O)N[C@H](Cc1ccc(NC(=O)[C@@H](NC(=O)C(F)(F)c2ccc(Cl)cc2)C2CCCCC2)c(F)c1)C(=O)N1CCN(C)CC1 [Compound 211]	IL-17A/A (Homo sapiens)	100 to 10000 nM
CCC(=O)N[C@@H](C(=O)N1CCN(C)CC1)[C@@H](C)c1ccc(NC(=O)[C@@H](NC(=O)c2cccn2CC)C2CCCCCC2)c(F)c1 [Compound 275]	IL-17A/A (Homo sapiens)	< 10 nM

--- query ---
Entry CCn1nccc1C(=O)N[C@H](C(=O)Nc1ccc([C@H](C)C(NC(=O)C(C)F)C(=O)N2CCN(C)[C@H](C)C2)cc1F)[C@H]1CC[C@H](C)CC1 (single isomer, unassigned) [Compound 596] : reported IC50 = ?
10 to 100 nM
